# experiment_description: protein stability index of a GFP-peptide fusion (GPS, HEK-293T) (PSI 1-6); higher = more stable;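 also: 24-mer peptide tiles fused after GFP, lentivirally expressed, FACS-sorted into six equal bins by GFP/DsRed ratio, decoded by Illumina sequencing, PSI is the read-weighted mean bin number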
# experimental_setup: treatment: DMSO; c terminus: a fixed tail appended
In this scheme, each record receives a class according to its protein stability index; the ranges are low end (below 3), middle (3 to below 4), high end (4 or more)

Category of FDLCDRTFSLKTVLMIAIQLISRM [CSNK1G3] , please. low end

Given KISVPRDVMLEELSLLTNRGSKMF [MYOZ1] , name the class its protein stability index places it in. low end

State the band of GIESMDQCRHTLEQHNWNIEAAVQ [FAF2] middle

Where would RNYLNYGEEGAPGKWQQQGDLQDT [CHGB] land among the classes by reported protein stability index? high end

Record LCALPVHVAVEHQLPPASRCVLVF [SOAT2] — which class? low end

Which class holds DKGGRVVIFQREQESKNQVHRRGE [PPP2R2B] ? high end

Into which bin does this sequence go? DERAMELLIDFAYTSQITVEEGNV [KLHL20] low end

Just checking, what class would you give TSVLDALSTDMVHAASDPSSSSGR [SMOC2] here? high end

Classify this sequence: TDLDAVRTPEPLEEFPKREDQEGS [MYBL2] high end

Assign a bin to NHVAVAARYAQQKHRIRRVLIVDW [HDAC6] low end

Please report the category associated with AVLPTAFRVAKKRAPKVLGTTLVV [GDAP1] , nothing else. low end

Assign a bin to LFSDPRSTRLTRIHLREDLVQDQD [ZER1] high end

Please classify: VQITGQPNILFYASTVLKSVGFQS [SLC2A12] middle

Consider RNPVSLVVTRLVILGSGEEGPQVG [ADAMTS4] . To which protein stability index class does it belong? low end

Record SSNLSLDVLRGNDETIGFEDILND [POMP] — which class? high end

Category lookup for the sequence TLPKSLSLPTTAPSNSSSLTLSGI [MYBL2] middle

Class label required: RALHWAAYMGHLDVVALLINHGAE [ANKRD44] low end

Lab note: sort PEARSRDATPPVSPINMEDQERIK [JUNB] into the matching protein stability index band. high end

Exam item: assign PAVRQRVIEEAKTAFLLNIQLFEE [HMOX1] to the correct category. low end

Looking at RKDHLKNHLQTHDPNKMAFGCEEC [PLAGL1] , which class would you pick? high end

Which protein stability index band matches DSSLHWSSSYSPETFRQQFRQFGY [ZNF396] ? low end

Textbook exercise: identify the category of the sequence given here, NHANGLTLVSRAHQLVMEGYNWCH [PPP2CA] , according to its measured value. low end

Which class holds DQIEDMFEQGKWDVFSENLLADVK [STX11] ? middle

Textbook exercise: identify the category of the sequence given here, FAGGFVDFGACDGGLLTGNEKITM [KRT13] , according to its measured value. low end

Class for LLAYLIRNGSERVVTSAREHIYDL [CLINT1] ? low end

Form: Item = KVPVITSSKEEQKLIATSNKPAVK [KCTD10] ; Class = ? high end

// return the class label for PSVPDNAELVLLTLGQAWQGYVSD [DFFB] low end

State the class of the sequence shown: AEVQAKLENAEVLELTVRRVQGVL [HES6] low end

Band for the recorded protein stability index of KLEYEEIALDLTPVIEELTNAGFL [FAN1] ? low end

Which class does YVEIRTFEPRLLVQSIELQRPRFI [VPS39] fall in? low end

Which bin should I file DRQYDSRGRFGELLLLLPTLQSIT [HNF4A] under? low end

Category of DMLIREVVEKRLCMYEHGEDTHQS [RSPH3] , please. middle

Into which bin does this sequence go? LSRKVAKLVHFLLLKYRAREPVTK [MAGEA6] low end

Form field 'band' for REFDVRQTPQVNINPFTPDSLLLH [WEE1] middle

Would you mind sorting SLERGTALFAQVQRGALPAPDPEL [RSAD1] into the appropriate category? high end

Band of EHTGEVRTARALLDRDALKQSLVV [PCDHGA10] ? middle

// bin(item) where item = LYVRRVFIMDSCDELIPEYLNFIR [HSP90AB1] low end

# classify by protein stability index band: LEQDLQQVMVSGPNLNETSIVSGG [ARFIP2] high end

Lab note: sort QQQVKTNGAGVTVLRREISELRTK [FBXO28] into the matching protein stability index band. high end

# bin lookup: classify VAAETGHTSTARLLLHRGAGKEAM [RIPK4] by its protein stability index middle

Assign a category based on measured protein stability index for RVKFRRQEANARERNRMHGLNDAL [NEUROD6] and give only the class name. middle

Quick check: band for RMAIGYLHSHRHLYPEGIGARQQQ [POMT2] low end

Could you place HLRTHTGERPYKCSECGESFSRSS [ZNF263] in its proper category? Many thanks. middle

Record MSTEEQYRIRQVNIYYYLEDDSMS [EFHC1] — which class? low end

# bin label for YFTKSGFHPDPRQKALYRRLATVH [CLPTM1] low end
